Please go through the items and note down their bactericidal concentration.
Tested on: CIMRSA 1
Assay: Determination of bactericidal concentration
Format: cell-based, Clinical isolate of methicillin-resistant S. aureus
Conditions: CIMRSA 1 and 2 (both strains, text summary)
Numbers only, in µg/mL.

compoundstring=CCCCCCCCCCCCCCCC#CC(=O)O readoutnumber=15.6

Prompt: Given the compound CCCCCCCCCCCCCC#CC(=O)O , what is its reported bactericidal concentration?
Response: 7.8

* * *

Test system: S. aureus (ATCC 29213)
Assay: Microdilution susceptibility testing
Details: Staphylococcus aureus, ATCC29213
measuredParameter: MIC

compound="COc1cccc(OC)c1C(=O)N[C@@H]1C(=O)N2[C@@H]1SC(C)(C)[C@@H]2C(=O)O [Methicillin, reference compound]" measuredparameter=MIC result="0.06 µg/mL"

State the recorded MIC for every item in the following list.
1. CCCCCCCCCCCCCC#CCOC1CCCCO1 (stereo not shown) [Compound 2-HDOTHP, 2-(2-Hexadecynyloxy)-tetrahydro-2H-pyran]
2. CCCCCCCCCCCCCCCC#CCOC1CCCCO1 (stereo not shown) [Compound 2-ODOTHP, 2-(2-Octadecynyloxy)-tetrahydro-2H-pyran]

Response:
1: > 1000 µg/mL; 2: > 1000 µg/mL

Prompt: Reported MIC for CCCCCCCCCCCCCCCC#CCO : what is it?
Response: > 1000 µg/mL

* * *

System: Gram-positive and Gram-negative bacteria
Test: Antibacterial activity against the bacteria of Table 1
Conditions: all bacteria presented in Table 1, result in words
measuredParameter: antibacterial activity

compound="CCCCCCCCCCCCCCCC#CCOC1CCCCO1 (stereo not shown) [Compound 2-ODOTHP, 2-(2-Octadecynyloxy)-tetrahydro-2H-pyran]" result=inactive
compound="CCCCCCCCCCCCCC#CCOC1CCCCO1 (stereo not shown) [Compound 2-HDOTHP, 2-(2-Hexadecynyloxy)-tetrahydro-2H-pyran]" result=inactive

* * *

For each of the compounds below, state its MIC.
Test system: S. aureus (ATCC 29213)
Test: Microdilution susceptibility testing
Conditions: Staphylococcus aureus, ATCC29213
One number for each entry, in µg/mL.

compound="O=C(O)c1cn(C2CC2)c2cc(N3CCNCC3)c(F)cc2c1=O [Ciprofloxacin, reference compound]" readoutnumber=0.25
compound=CCCCCCCCCC#CCCC#CC(=O)O readoutnumber=31.3
compound=CCCCCCCCCCCCCCCC#CC(=O)O readoutnumber=15.6

Prompt: Returns the measured MIC for the input compound. Input: CCCCCCCCCCCCCC#CC(=O)O
Response: 15.6

* * *

Tested on: K. pneumoniae (ATCC 13883)
Assay: Microdilution susceptibility testing
Settings: Klebsiella pneumoniae, ATCC13883
I'd appreciate it if you could supply MIC values for the items below.

compound="CCCCCCCCCC#CCCC#CC(=O)O [2,6-HDA, 2,6-hexadecadiynoic acid]" studysystem="K. pneumoniae (ATCC 13883)" result="62.5 µg/mL"
compound="CCCCCCCCCCCCCC#CC(=O)O [Compound 2-HDA, 2-hexadecynoic acid]" studysystem="K. pneumoniae (ATCC 13883)" result="7.8 µg/mL"

Give MIC for each listed item.
1. CCCCCCCCCCCCCCCC#CC(=O)O [Compound 2-ODA, 2-Octadecynoic acid]
2. CCCCCCCCCCCCCCCC#CCOC1CCCCO1 (stereo not drawn) [Compound 2-ODOTHP, 2-(2-Octadecynyloxy)-tetrahydro-2H-pyran]

Response:
1: 7.8 µg/mL; 2: > 1000 µg/mL

Would you mind giving MIC for every compound in the list below?
1. CCCCCCCCCCCCCCCC#CCO [Compound 2-ODOH, 2-Octadecyn-1-ol]
2. O=C(O)c1cn(C2CC2)c2cc(N3CCNCC3)c(F)cc2c1=O [Ciprofloxacin, reference compound]
3. CCCCCCCCCCCCCC#CCOC1CCCCO1 (stereo not drawn) [Compound 2-HDOTHP, 2-(2-Hexadecynyloxy)-tetrahydro-2H-pyran]
4. COc1cccc(OC)c1C(=O)N[C@@H]1C(=O)N2[C@@H]1SC(C)(C)[C@@H]2C(=O)O [Methicillin, reference compound]

Response:
> 1000 µg/mL
0.24 µg/mL
> 1000 µg/mL
0.98 µg/mL

Prompt: MIC for CCCCCCCCCCCCCC#CCO [Compound 2-HDOH, 2-Hexadecyn-1-ol] ?
Response: > 1000 µg/mL

* * *

Test: Cytotoxicity testing, MTT assay
Assay type: cell-based
Settings: human, peripheral blood mononuclear cells (PBMC)
What IC50 at 3 days was measured for each of the following?
Numbers only, in µg/mL.

Solved cases (2 shown):
compoundstring=CCCCCCCCCC#CCCC#CC(=O)O unitlabel=µg/mL readoutnumber=63.4
compoundstring=CCCCCCCCCCCCCC#CC(=O)O unitlabel=µg/mL readoutnumber=57.2

Turning now to a further compound:
Prompt: Form field: reported IC50 at 3 days of CCCCCCCCCCCCCCCC#CC(=O)O
Response: 58.9

* * *

Assay: Cytotoxicity testing, MTT assay
Type: cell-based
Conditions: human
measuredParameter: IC50 at 3 days (µg/mL)
Answers are plain numbers, in µg/mL.

compound="O=C(O)c1cn(C2CC2)c2cc(N3CCNCC3)c(F)cc2c1=O [Ciprofloxacin, reference compound]" readoutnumber=66.4

Prompt: Return reported IC50 at 3 days; argument: COc1cccc(OC)c1C(=O)N[C@@H]1C(=O)N2[C@@H]1SC(C)(C)[C@@H]2C(=O)O [Methicillin, reference compound]
Response: 86.1
